System: DAF-12 nuclear receptor (Heterodera glycines), GAL4-LBD fusion
Assay: H. glycines DAF-12 receptor agonists, confirmation, cell-based, luminescence, HEK293, GAL4-LBD fusion (AID 743050);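 note: 0% = DMSO low control and 100% = 2 mM sodium butyrate high control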
Details: HEK293 GAL4-hgDAF12 luciferase reporter, agonist mode; at 6.8 µM; stronger effect = higher value; percent of butyrate response
The other results are listed elsewhere or left out.
Measured parameter: activation (%)
Please respond with the number in % and leave the unit unwritten.

Some entries whose results are on file:
{"columns": ["Compound", "Tgt", "Quantity unit", "Recorded measurement"],
 "data": [
  ["COc1ccc(NC(=O)c2ccc(OC)cc2)cc1", "DAF-12 nuclear receptor (Heterodera glycines), GAL4-LBD fusion", "%", 15.9],
  ["O=C(NCCCn1ccnc1)c1cc(-c2ccccc2)on1", "DAF-12 nuclear receptor (Heterodera glycines), GAL4-LBD fusion", "%", 57.6],
  ["COc1ccc(-c2csc(-c3cccs3)n2)cc1OC", "DAF-12 nuclear receptor (Heterodera glycines), GAL4-LBD fusion", "%", 9.44],
  ["Brc1ccc(-c2noc(-c3ccccc3)n2)o1", "DAF-12 nuclear receptor (Heterodera glycines), GAL4-LBD fusion", "%", 18.7],
  ["CCCNC(=O)c1c(Cl)cnn1-c1ccc(C)cc1", "DAF-12 nuclear receptor (Heterodera glycines), GAL4-LBD fusion", "%", 9.95],
  ["Clc1ccc2nc(CSc3ccccc3)cn2c1", "DAF-12 nuclear receptor (Heterodera glycines), GAL4-LBD fusion", "%", 13.2],
  ["O=C(CCSc1ccccc1)N1CCN(c2ccccc2F)CC1", "DAF-12 nuclear receptor (Heterodera glycines), GAL4-LBD fusion", "%", 14.2],
  ["COc1ccc(NC(=S)N2N=CCC2c2ccccc2)cc1 (configuration not stated)", "DAF-12 nuclear receptor (Heterodera glycines), GAL4-LBD fusion", "%", 13.8]
]}

Could you now look at the following compound, please?
Answer with the recorded activation of COc1cc(SC)ccc1C(=O)Nc1cc(C)ccn1 only. 17.2

Cited source: PubChem BioAssay
